Each recorded value in this set is attributed to PubChem BioAssay.

# experimental system: Protein phosphatase methylesterase 1 (Homo sapiens)
# experiment: PME-1 inhibitor activity retest, confirmation, biochemical, fluorescence polarization, FP-Rh probe, triplicate (AID 2171);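 also: 0% = enzyme with DMSO and 100% = wells lacking PME-1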
# run conditions: recombinant PME-1, FP-Rh probe fluorescence polarization; at 5.9 µM; stronger effect = higher value
Binary call on inhibition: yes (1) from 20% upward, no (0) beneath that.

Here are 3 molecules together with their reported answers.
• CN(C)S(=O)(=O)c1cccc(NC(=S)NNC(=O)c2cc3ccccc3cc2O)c1 = no (0)
• O=C(O)CSc1cc(NS(=O)(=O)c2ccc(Br)cc2)c2ccccc2c1O = no (0)
• Nc1ccc2c(c1)C(=O)C(=O)c1ccccc1-2 = yes (1)

Query string: Given the entry Cc1nc2ccccc2nc1N/N=C/c1ccc(O)cc1O , answer whether its inhibition meets or surpasses 20%.
Result string: yes (1)

Query string: hey, is inhibition for this one >= 20%? CCCCn1c(NS(=O)(=O)c2ccccc2)c(S(=O)(=O)c2ccc(C)cc2)c2nc3ccccc3nc21
Result string: no (0)

Query string: I'd appreciate it if you could say whether Cc1cccc(-c2nc(Nc3ccc(O)cc3)c3ccccc3n2)c1 has inhibition at least equal to 20%.
Result string: no (0)

Query string: Given the entry N#CCCN(CCC#N)C(=O)C1c2ccccc2Oc2ccccc21 , answer whether its inhibition meets or surpasses 20%.
Result string: no (0)

Query string: Check the entry O=C(N/N=C/c1c[nH]c2ccccc12)c1cc(-c2cccc3ccccc23)n[nH]1 : does inhibition equal or exceed 20%?
Result string: no (0)

====

# experiment: StAR promoter reporter inhibitors, counter-screen for LRH-1 inverse agonist project, cell-based, luminescence, high throughput (AID 651611)
# run conditions: StAR promoter luciferase reporter counterscreen, at 3.6 µM, stronger effect = higher value
Label scheme for inhibition: lower than 20% is class 0, 20% and above is class 1.

For orientation, consider the following solved cases.
• Cc1cc(/C=C2\SC(=S)N(C)C2=O)c(C)n1-c1ccc(O)cc1 = class 1
• O=C(CSc1nnnn1C1CC2CCC1C2)Nc1ccnc2ccccc12 (configuration not stated) = class 1

Query string: Could you tell me if the measured inhibition of COc1ccccc1NC(=O)c1ccc(NC(=O)COC(=O)C(C)C)cc1 reaches 20% or more?
Result string: class 0

Query string: Test whether the compound COc1ccccc1NC(=O)CN1CCN(CC(=O)Nc2ccc(S(N)(=O)=O)cc2)CC1 records inhibition of 20% or higher.
Result string: class 0

Query string: Answer whether inhibition of O=[N+]([O-])c1ccc(N2CCN(S(=O)(=O)c3ccccc3)CC2)cc1NCc1cccnc1 is greater than or equal to 20%.
Result string: class 0

Query string: inhibition >= 20% for O=C(CCl)N(c1ccccc1)C1CCCCC1 ?
Result string: class 1

Query string: Is it the case that C=CCNC(=S)N/N=C/c1ccc(N(CC)Cc2ccccc2)cc1 has inhibition reaching or exceeding 20%?
Result string: class 0

Query string: For this compound, is measured inhibition 20% or higher? Clc1ccccc1-c1nnc2sc(-c3ccc(Br)o3)nn12
Result string: class 0

Query string: Assess whether reported inhibition for Cc1ccc(C(=O)Sc2cccccc2=O)cc1 sits at 20% or higher.
Result string: class 1

Query string: Check if inhibition >= 20% (inclusive). Item: c1cc(CNc2ccc3c(c2)OCCO3)ccn1
Result string: class 0

Query string: Please tell me: is the compound CC(O)(c1cccnc1)c1nc(-c2cccc(C#N)c2)cs1 (configuration not stated) at or over 20% in terms of inhibition?
Result string: class 0

====

# experiment: VP16 transactivation reporter inhibitors, counter-screen for LRH-1 inverse agonist project, cell-based, luminescence, high throughput (AID 651615)
# run conditions: Gal4-VP16 luciferase reporter cells, at 3.6 µM
Active and inactive are the calls of the source. Cut-off read from the data, not from the text of the source: active = inhibition above about 33%; inactive = the rest.
Thanks in advance; please answer with one of these: Y for active, N for inactive

Use the examples below as a reference point.
- COc1ccc(-c2ccc(C(=O)NCc3ccncc3)c3occc23)c(C)c1: Y
- O=C(NCc1ccc2c(c1)OCO2)c1cc([N+](=O)[O-])ccc1N1CCCCC1: N
- Cc1ccc(NC(=O)c2ccc([N+](=O)[O-])o2)c(C)c1: N
- N=c1sccn1CC(=O)Nc1ccc(S(N)(=O)=O)cc1: N
- Cc1ccc(NC(=O)CN2CCC(NC(=O)C3CCCCC3)CC2)c(Br)c1: N

Query string: I'd appreciate the recorded outcome for CC1Cc2cc(-c3csc(NC(=O)Cc4cccs4)n3)ccc2N1S(C)(=O)=O (configuration not stated) from this test.
Result string: Y

Query string: // outcome(item) with item = CCOC(=O)N1CCc2cc(OC)c(OC)c3c2c1cc1cc(OC)c(OC)cc13
Result string: N

====

# experimental system: Nuclear receptor coactivator 2 (Homo sapiens) (UniProt Q15596)
# Sequence (Q15596 whole entry, looked up): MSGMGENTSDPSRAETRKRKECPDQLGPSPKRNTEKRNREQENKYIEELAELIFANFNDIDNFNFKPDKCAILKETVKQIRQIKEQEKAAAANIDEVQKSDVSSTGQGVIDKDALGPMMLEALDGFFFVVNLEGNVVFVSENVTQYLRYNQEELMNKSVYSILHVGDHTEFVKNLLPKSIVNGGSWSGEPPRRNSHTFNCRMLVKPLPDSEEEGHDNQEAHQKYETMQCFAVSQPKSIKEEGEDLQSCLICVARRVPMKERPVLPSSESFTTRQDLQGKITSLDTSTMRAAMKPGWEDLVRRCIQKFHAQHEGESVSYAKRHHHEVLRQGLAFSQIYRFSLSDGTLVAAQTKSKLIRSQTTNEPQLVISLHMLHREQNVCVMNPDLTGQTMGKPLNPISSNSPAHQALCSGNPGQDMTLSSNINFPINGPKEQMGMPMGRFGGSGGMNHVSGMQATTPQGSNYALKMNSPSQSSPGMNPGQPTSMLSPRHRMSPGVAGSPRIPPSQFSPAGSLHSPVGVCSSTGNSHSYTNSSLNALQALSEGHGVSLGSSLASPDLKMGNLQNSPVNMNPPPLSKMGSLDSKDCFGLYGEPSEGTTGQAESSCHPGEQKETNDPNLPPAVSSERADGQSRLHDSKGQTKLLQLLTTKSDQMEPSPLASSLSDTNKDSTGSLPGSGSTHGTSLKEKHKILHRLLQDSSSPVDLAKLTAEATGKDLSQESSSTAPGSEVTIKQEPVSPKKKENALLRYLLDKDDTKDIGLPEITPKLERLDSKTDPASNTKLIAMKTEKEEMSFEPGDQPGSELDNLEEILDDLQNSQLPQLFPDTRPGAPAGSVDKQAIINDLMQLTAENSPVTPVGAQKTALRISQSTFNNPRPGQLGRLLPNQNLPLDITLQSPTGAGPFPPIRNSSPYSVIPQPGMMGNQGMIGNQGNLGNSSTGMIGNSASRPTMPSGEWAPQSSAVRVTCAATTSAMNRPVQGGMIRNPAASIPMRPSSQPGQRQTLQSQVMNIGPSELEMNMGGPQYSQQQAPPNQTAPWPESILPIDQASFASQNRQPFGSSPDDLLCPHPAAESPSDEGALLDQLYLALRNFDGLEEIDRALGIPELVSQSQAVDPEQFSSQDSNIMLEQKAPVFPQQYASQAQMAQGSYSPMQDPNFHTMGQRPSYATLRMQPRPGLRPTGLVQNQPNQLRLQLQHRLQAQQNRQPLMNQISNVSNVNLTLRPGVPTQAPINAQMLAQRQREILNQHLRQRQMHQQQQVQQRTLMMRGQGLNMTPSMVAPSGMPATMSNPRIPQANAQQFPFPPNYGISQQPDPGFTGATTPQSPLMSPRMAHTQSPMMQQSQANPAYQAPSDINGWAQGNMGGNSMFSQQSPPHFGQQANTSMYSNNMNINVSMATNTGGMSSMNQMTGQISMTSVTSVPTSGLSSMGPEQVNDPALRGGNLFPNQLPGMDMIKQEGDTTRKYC
# experiment: SRC2 coactivator transcriptional activity inhibitors, confirmation, cell-based, luminescence, HEK293, triplicate (AID 652008);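 also: 0% = DMSO-treated cells and 100% = Gossypol at 36 µM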
# run conditions: HEK293 GAL4-SRC2 luciferase reporter, at 8.9 µM, stronger effect = higher value
Assign inhibition to each entry below.
Numbers only, in %.

* CCCCN(CC)Cc1ccc(CNC(=S)Nc2ccc(C)cc2Cl)o1 | 30.4
* CCc1cc(CNC(=O)c2ccc3nc(Cc4ccc(OC)c(OC)c4)oc3c2)on1 | 26.6
* CC(C)(C)C(=O)/C(=C/c1ccncc1)n1cncn1 | 63.3
* CCOc1cccc(/C=N/NC(=S)Nc2ccccc2[N+](=O)[O-])c1O | 73.3
* CN(C)c1ccc(NC(=S)c2ccccn2)cc1 | 59.6

Please give inhibition for each item listed below.
1. O=C(O)c1ccccc1C(=O)Nc1ccc(Oc2ccc3ccccc3c2)cc1
2. COc1ccc(Nc2ccnc3ccccc23)cc1

Result string:
1: 28; 2: 30

Hey, can you go through the list below and give me inhibition for every item?
1. NCCN1C(=O)S/C(=C\c2ccc3c(c2)OCO3)C1=O
2. Cc1ccc(N(C)C(=O)c2cc(S(=O)(=O)N3CCCCC3)c[nH]2)cc1

Result string:
56.6
15.4

====

# experiment: StAR promoter reporter inhibitors, counter-screen for LRH-1 inverse agonist project, cell-based, luminescence, high throughput (AID 651611)
# run conditions: StAR promoter luciferase reporter counterscreen, at 3.6 µM, stronger effect = higher value
property: inhibition (%)
Give bare numbers, in %.

• COc1ccc(NC(=O)COc2cccc3c2CCN(C)C3=O)c(OC)c1 = 20.5
• COc1ccc(NC(=O)CSc2n[nH]c(-c3ccccn3)n2)cc1 = 2.28
• CCN(CC)S(=O)(=O)c1ccc(N2CCOCC2)c(NC(=O)c2[nH]c(C)c(C(C)=O)c2C)c1 = 61.6
• O=C(Sc1cccc2cccnc12)c1ccccc1Br = 86.8
• COc1ccc(N2CC(C(=O)N/N=C/c3ccc(C)cc3)CC2=O)cc1 (centres undefined) = 40.7
• CN(Cc1cnc2nc(N)nc(N)c2n1)c1ccc(C(=O)NC(CCC(=O)O)C(=O)O)c2ccccc12 (centres undefined) = 77.9
• COc1ccc(-c2c(-c3ccccc3)c(C(=O)C(=O)NCCCN(C)C)n3ccc4cc(OC)c(OC)cc4c23)cc1OC = 20.4
• CC1CC(C)C[N+](=C2C=C(N3CCCC3)CC(C)(C)C2)C1 (centres undefined) = 38.9
• Cc1cc(-c2nn3c(-c4ccccc4)nnc3s2)c2ccccc2n1 = 7.3
• CCn1c2ccccc2c2cc(/C=N/n3c(-c4cc(C)[nH]n4)n[nH]c3=S)ccc21 = 11.8

// for each compound in input: emit inhibition
1. O=C(Nc1ccc(S(=O)(=O)N2CCCC2)cc1)c1ccc(CN2CCc3ccccc3C2)cc1
2. Cc1cc2oc(=O)cc(-c3ccccc3)c2c(C)c1-c1ccc(N(C)C)cc1
3. Cc1cccc(-n2ncc3c(N(C)C4CCCCC4)ncnc32)c1
4. COc1ccc(S(=O)(=O)N2CCOCC2)cc1NC(=O)CCNC(=O)c1ccc(Br)cc1

Result string:
1. 51.4
2. 0.45
3. 60.6
4. 90.4

====

Task for the reader: assign each of the following compounds its reported inhibition.
# experiment: VP16 transactivation inhibitors, counter-screen for SRC1 inhibitor project, cell-based, luminescence, high throughput (AID 588824)
# run conditions: cell-based VP16 transactivation luciferase luminescence; at 3.6 µM; stronger effect = higher value
Give bare numbers, in %.

# count of solved cases: 5
- O=C(CSc1nc2[nH]ncc2c(=O)[nH]1)N1CCCCC1: -6.86
- CC1=C(C(=O)OCc2ccc3c(c2)OCO3)C(c2cccc([N+](=O)[O-])c2)NC(=O)N1 (centres undefined): 37.3
- NC(=S)NN=Cc1nccc2c(N)cccc12: 8.49
- CCCc1ccc(-c2ccc(/C=C/C(=O)O)cc2)nc1: 67.7
- CC(O)CC(=O)OC[C@]12CC[C@H]3[C@@](C)(CC[C@H]4C(C)(C)CCC[C@]34C)[C@@H]1CC(C1=CC(=O)OC1O)O2 (some centres undefined): 43.4

Give me inhibition for each of these compounds, listed below.
1. COc1cccc(C(C(=O)NC2CCCC2)N(C(=O)c2ccco2)c2ccc(C(C)=O)cc2)c1OC (centres undefined)
2. CCOc1ccc(-n2c(C)c(C(C)=O)c3cc(OC(C)=O)ccc32)cc1

Result string:
1: -9.34; 2: 47.6

Return reported inhibition values for all items listed beneath this line.
1. CCc1ccccc1Nc1nn2c(=O)c3ccc(C(=O)NCc4ccccn4)cc3nc2s1
2. C=CCn1c(SCC(=O)Nc2ccccc2F)nc2ccccc2c1=O
3. O=C(C[C@H]1C[C@H](C(=O)N2CCOCC2)[C@@]2(CCC3CCCC3)c3[nH]c4ccc(Cl)cc4c3CCN2C1=O)NCCCn1ccnc1
4. O=C(Nc1ccc(S(=O)(=O)N2CCCCC2)cc1)c1ccc(CN2CCOCC2)cc1
5. O=C1CCCCC1Sc1nnc(-c2ccc3c(c2)OCO3)o1 (centres undefined)
6. Cc1sc2ncnc(NCC3COc4ccccc4O3)c2c1C (centres undefined)
7. CC(C(=O)Nc1ccon1)N1C(=O)c2ccccc2S1(=O)=O (centres undefined)

Result string:
[59.9, -1.24, 2.48, 47.1, -49.6, 26.2, 11.8]
